System: E.coli
Assay type: cell-based, Escherichia coli
Bridge positions count the residues as written; N and C are the ends. Square brackets hold non-standard residues; d marks the D form. Peptide text beside a SMILES is read from it. d(aIle) = CC[C@H](C)[C@@H](N)C(=O)O; dNMeF = CN[C@H](Cc1ccccc1)C(=O)O
property.measured: MIC E. coli (µg/mL)
Give the quantity in µg/mL, number only.

Query: Please give the documented MIC E. coli of CC[C@H](C)[C@H](NC(=O)[C@H](NC(=O)[C@@H](CCC(N)=O)NC(=O)[C@H](CO)NC(=O)[C@H](CC(C)C)NC(=O)[C@@H](Cc1ccccc1)NC)[C@@H](C)CC)C(=O)N[C@@H](CO)C(=O)N[C@H]1C(=O)N[C@@H](C)C(=O)N[C@@H](CCCCN)C(=O)N[C@@H]([C@@H](C)CC)C(=O)O[C@H]1C [Compound 10] (H-[dNMeF]LS[dQ][d(aIle)]IS[dT]AKI; ester 8-C)
Result: 16

----------
Test system: E.coli
Format: cell-based, Escherichia coli
Bridge positions count the residues as written; N and C are the ends. Square brackets hold non-standard residues; d marks the D form. Peptide text beside a SMILES is read from it. d(aIle) = CC[C@H](C)[C@@H](N)C(=O)O; dNMeF = CN[C@H](Cc1ccccc1)C(=O)O
property.measured: MIC E. coli (µg/mL)
Just the number in µg/mL, nothing appended.

Query: Please report the measured MIC E. coli for CC[C@H](C)[C@H](NC(=O)[C@@H](Cc1ccccc1)NC)C(=O)N[C@@H](CO)C(=O)N[C@H](CCCCN)C(=O)N[C@@H](C(=O)N[C@H](C(=O)N[C@@H](CO)C(=O)N[C@H]1C(=O)N[C@@H](C)C(=O)N[C@@H](CCCCN)C(=O)N[C@@H]([C@@H](C)CC)C(=O)O[C@H]1C)[C@@H](C)CC)[C@@H](C)CC [Compound 14] (H-[dNMeF]IS[dK][d(aIle)]IS[dT]AKI; ester 8-C)
Result: 4

Query: Specify reported MIC E. coli for the molecule shown: CC[C@H](C)[C@H](NC(=O)[C@@H](Cc1ccccc1)NC)C(=O)N[C@@H](CO)C(=O)N[C@H](CCC(N)=O)C(=O)N[C@@H](C(=O)N[C@H](C(=O)N[C@@H](CO)C(=O)N[C@H]1C(=O)N[C@@H](C)C(=O)N[C@@H](CCCNC(=N)NC)C(=O)N[C@@H]([C@@H](C)CC)C(=O)O[C@H]1C)[C@@H](C)CC)[C@@H](C)CC
Result: 16

Query: Give a short answer stating reported MIC E. coli for CC[C@H](C)[C@H](NC(=O)[C@@H](Cc1ccccc1)NC)C(=O)N[C@@H](CO)C(=O)N[C@H](Cc1c[nH]c2ccccc12)C(=O)N[C@@H](C(=O)N[C@H](C(=O)N[C@@H](CO)C(=O)N[C@H]1C(=O)N[C@@H](C)C(=O)N[C@@H](CCCCN)C(=O)N[C@@H]([C@@H](C)CC)C(=O)O[C@H]1C)[C@@H](C)CC)[C@@H](C)CC [Compound 13] (H-[dNMeF]IS[dW][d(aIle)]IS[dT]AKI; ester 8-C) .
Result: 16

Query: Write down MIC E. coli measured for item CC[C@@H](C)[C@@H](NC(=O)[C@@H](CCC(N)=O)NC(=O)[C@H](CO)NC(=O)[C@@H](NC(=O)[C@@H](Cc1ccccc1)NC)[C@@H](C)CC)C(=O)N[C@H](C(=O)N[C@@H](CO)C(=O)N[C@H]1C(=O)N[C@@H](C)C(=O)N[C@@H](CCCCN)C(=O)N[C@@H]([C@@H](C)CC)C(=O)O[C@H]1C)[C@@H](C)CC
Result: 32
